# assay_name: Human HepG2 cell viability assay in 384 well format
# Type: toxicity, cell-based
# Parameters: dose 125 nL, time 70.5 hour; concentration not given beside the values
# cond: HepG2 cells, read-out: Inhibition
Recorded cytotoxicity at 70.5 h for the following compounds

| compound | cytotoxicity at 70.5 h, % |
| --- | --- |
| Cc1ccc(CNC(=O)c2cc(NC(=O)C3CC3)n(C)n2)o1 | -7.15 |
| CNc1nc(C2CCCN(C(=O)C3CCCCC3)C2)nc2c1CNCC2 (stereo unspecified) | -3.63 |
| COc1ccccc1C(O)CNC(=O)Nc1cccnc1OC (stereo unspecified) | -3.1 |
| CS(=O)(=O)CCC(=O)NC(Cc1ccccc1)C1CC1 (stereo unspecified) | -4.37 |
| COCCCNC(=O)CN(C)C(=O)c1cc(Cl)ccc1O | 0.174 |
| COc1ccc(OC2CCN(C(=O)CCc3nc(Cl)n[nH]3)CC2)cc1 | -4.51 |
| O=C(NCc1ccco1)[C@@H]1CCO[C@@H]2CCN(C3CCOCC3)C[C@H]21 | 4.93 |
| Cn1cc(CN2CCCC3(CCN(c4nncs4)C3)C2)cn1 (stereo unspecified) | -0.185 |
| CN(Cc1ccc2nsnc2c1)C(=O)Cn1ncc(N(C)C)cc1=O | -7.03 |
| COc1cccc(CN(C)S(=O)(=O)N2CCOCC2)c1 | 2.16 |
| CCc1noc(C(C)N2CCC(NC(=O)c3ccc(C)s3)CC2)n1 (stereo unspecified) | -7.01 |

====

# assay_name: Human HepG2 cell viability assay in 384 well format
# Assay type: toxicity, cell-based
# Parameters: dose 125 nL, time 70.5 hour; concentration not given beside the values
# cond: HepG2 cells, read-out: Inhibition
Values of cytotoxicity at 70.5 h greater than or equal to -10% map to Satisfied; values below map to Not satisfied.

| compound | discrete_label |
| --- | --- |
| Cc1cccc(CN2CCCC3(CCN(CC(=O)N(C)C)C3=O)C2)n1 (stereo not given) | Not satisfied |
| Cc1ncsc1C(=O)N1CCCC(c2noc(C(C)C)n2)C1 (stereo not given) | Satisfied |
| O=C(Nc1ccccc1)N1C[C@H]2C[C@H](C(=O)N3CCOCC3)[C@@H](C1)O2 | Satisfied |
| COCCN(C)C[C@@H]1CN(C(=O)c2cccc(Cl)c2)C[C@@H]1CO | Not satisfied |
| CC1CN(CC2CCCCC2)CCN1c1ccc2nncn2n1 (stereo not given) | Satisfied |

====

Below, each entry is listed with its recorded cytotoxicity at 70.5 h.
# assay_name: Human HepG2 cell viability assay in 384 well format
# Format: toxicity, cell-based
# Parameters: dose 125 nL, time 70.5 hour; concentration not given beside the values
# cond: HepG2 cells, read-out: Inhibition

| compound | cytotoxicity at 70.5 h |
| --- | --- |
| O=C(c1ccco1)N1CCC2(CCCN(c3ncccn3)C2)C1 (stereo not drawn) | 11% |
| COC(=O)c1cccc(CN(C)Cc2ncnn2C)c1C#N | 28.8% |
| CCNC(=O)Cc1ccc(NC(=O)NC(CC)c2ccncc2)cc1 (stereo not drawn) | -2.39% |
| Cc1cc(F)ccc1N1CCC(N2C[C@@H](CN(C)C)[C@@H](CO)C2)CC1 | -6.24% |
| O=C(COc1cccc(Br)c1)N1CCN(c2nccs2)CC1 | 14.3% |
| CCN1c2ccc(-c3cncn3CC(=O)NC(C)(C)C)cc2CC1C (stereo not drawn) | -7.81% |
| CCNC(=O)c1ccc(NC(=O)N(C)Cc2cccn2C)c(C)c1 | 5.27% |
| CC(C)CNC(=O)c1nc2c(s1)CCN(C(=O)c1ccc(Cl)cc1)CC2 | -3.22% |
